studyTarget: UniProt Q5NUL3
Sequence (Q5NUL3 whole entry, looked up, change not shown, canonical isoform): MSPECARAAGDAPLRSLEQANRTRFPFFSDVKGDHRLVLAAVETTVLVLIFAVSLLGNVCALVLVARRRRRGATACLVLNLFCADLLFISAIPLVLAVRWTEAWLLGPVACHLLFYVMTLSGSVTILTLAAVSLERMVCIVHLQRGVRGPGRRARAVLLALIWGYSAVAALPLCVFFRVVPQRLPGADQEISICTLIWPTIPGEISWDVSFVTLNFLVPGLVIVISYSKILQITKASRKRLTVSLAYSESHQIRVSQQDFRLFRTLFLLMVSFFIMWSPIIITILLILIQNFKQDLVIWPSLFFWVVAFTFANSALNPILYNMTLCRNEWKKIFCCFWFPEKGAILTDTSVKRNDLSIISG
assayInfo: Agonist activity at human GPR120 short splice variant expressed in HEK293 cells assessed as increase in intracellular calcium flux by Fluo-4 NW dye based FLIPR assay
Assay type: functional, cell-based
assayEndpoint: EC50
Don't forget the unit after the number, please.

Some molecules with recorded EC50:
smilesRecord: Cc1c(CCC(=O)O)ccc(OCc2scnc2-c2ccc(Cl)cc2)c1C
endpointValue: 81 nM
--
smilesRecord: Cc1c(CCC(=O)O)ccc(OCc2csnc2-c2ccc(Cl)cc2)c1C
endpointValue: 217 nM
--
smilesRecord: O=C(O)CCc1cc(F)c(OCc2c(-c3ccc(F)cc3)noc2C(F)(F)F)c(F)c1
endpointValue: 150 nM
--
smilesRecord: Cc1c(CCC(=O)O)ccc(OCc2c(-c3ccc(Cl)cc3)noc2C(F)(F)F)c1C
endpointValue: 680 nM
--
smilesRecord: O=C(O)CCc1cc(F)c(OCc2c(-c3ccc(C4CC4)cc3)noc2C(F)(F)F)c(F)c1
endpointValue: 170 nM

Qu. Quick one: EC50 of CCc1ccc(-n2cccc2COc2ccc(CCC(=O)O)c(C)c2C)cc1 ?
Ans. 100 nM

Qu. Quick one: EC50 of CCc1onc(-c2ccc(Cl)cc2)c1COc1ccc(CCC(=O)O)c(C)c1C ?
Ans. 740 nM

Qu. Quick one: EC50 of O=C(O)CCc1cc(F)c(OCc2c(-c3ccc(Br)cc3)noc2C(F)(F)F)c(F)c1 ?
Ans. 120 nM

Qu. Quick one: EC50 of O=C(O)CCc1ccc(OCc2c(-c3ccc(Cl)cc3)noc2C(F)(F)F)c(F)c1F ?
Ans. 670 nM

Qu. Quick one: EC50 of O=C(O)CCc1cc(F)c(OCc2c(-c3ccc(F)cc3Cl)noc2C(F)(F)F)c(F)c1 ?
Ans. 71 nM

###

assayInfo: Clearance in C57/black 6J mouse at 5 mg/kg, iv by LC-MS/MS method
Format: ADME, organism-based
experimentalParameters: in vivo
compounds and their reported clearance

smilesRecord: O=C(O)CCc1cc(F)c(OCc2c(-c3ccc(Cl)cc3)noc2C(F)(F)F)c(F)c1
endpointValue: 7.18 mL/min/kg

Here is another compound to look at.
Qu. Quick one: clearance of CCc1ccc(-c2noc(C(F)(F)F)c2COc2c(F)cc(CCC(=O)O)cc2F)cc1 ?
Ans. 27.1 mL/min/kg
